test system: PHF6; assay: 3' UTR reporter interaction score (median-centred robust z-score of log2 firefly/Renilla activity); higher = less repression of the 3' UTR reporter; conditions: HEK293T; 48 h
Assign Fulfilled whenever 3' UTR reporter interaction score does not fall below 0.3; assign Not fulfilled whenever it does.

{"SEQUENCE INPUT": "AAAACGGUGAGAUUUUGUUUU", "CATEGORY LABEL": "Not fulfilled"}
{"SEQUENCE INPUT": "GCACAUUACACGGUCGACCUCU", "CATEGORY LABEL": "Not fulfilled"}
{"SEQUENCE INPUT": "GACACGGGCGACAGCUGCGGCCC", "CATEGORY LABEL": "Fulfilled"}
{"SEQUENCE INPUT": "CAGUAACAAAGAUUCAUCCUUGU", "CATEGORY LABEL": "Not fulfilled"}
{"SEQUENCE INPUT": "CUCUAGAGGGAAGCACUUUCU", "CATEGORY LABEL": "Not fulfilled"}
{"SEQUENCE INPUT": "CGAAUGUUGCUCGGUGAACCCCU", "CATEGORY LABEL": "Not fulfilled"}
{"SEQUENCE INPUT": "GUGCCUACUGAGCUGAUAUCAGU", "CATEGORY LABEL": "Not fulfilled"}
{"SEQUENCE INPUT": "CCCAGUGUUUAGACUAUCUGUUC", "CATEGORY LABEL": "Fulfilled"}
{"SEQUENCE INPUT": "AUUCUGCAUUUUUAGCAAGU", "CATEGORY LABEL": "Not fulfilled"}
{"SEQUENCE INPUT": "CUGACCUAUGAAUUGACAGCC", "CATEGORY LABEL": "Not fulfilled"}
{"SEQUENCE INPUT": "UAAGUGCUUCCAUGUUUUAGUAG", "CATEGORY LABEL": "Fulfilled"}
{"SEQUENCE INPUT": "UAGCAGCACAGAAAUAUUGGC", "CATEGORY LABEL": "Fulfilled"}
{"SEQUENCE INPUT": "ACAAAGUGCUUCCCUUUAGAGU", "CATEGORY LABEL": "Not fulfilled"}
{"SEQUENCE INPUT": "UUCUCCAAAAGGGAGCACUUUC", "CATEGORY LABEL": "Not fulfilled"}
{"SEQUENCE INPUT": "CAUUAUUACUUUUGGUACGCG", "CATEGORY LABEL": "Not fulfilled"}

----------
system: PHOX2B; assay: 3' UTR reporter interaction score (median-centred robust z-score of log2 firefly/Renilla activity); higher = less repression of the 3' UTR reporter; conditions: HEK293T; 48 h
READOUT: 3' UTR reporter interaction score

{"SEQUENCE INPUT": "UGGUAGACUAUGGAACGUA", "VALUE REPORTED": -0.373}
{"SEQUENCE INPUT": "CUUUCAGUCGGAUGUUUGCAGC", "VALUE REPORTED": 0.68}
{"SEQUENCE INPUT": "AAACCUGUGUUGUUCAAGAGUC", "VALUE REPORTED": -2.54}
{"SEQUENCE INPUT": "ACUCCAUUUGUUUUGAUGAUGGA", "VALUE REPORTED": 0.953}
{"SEQUENCE INPUT": "UGGUGCGGAGAGGGCCCACAGUG", "VALUE REPORTED": 0.217}
{"SEQUENCE INPUT": "UAUGUGGGAUGGUAAACCGCUU", "VALUE REPORTED": -0.0868}
{"SEQUENCE INPUT": "AAAGUGCAUCCUUUUAGAGGUUU", "VALUE REPORTED": 0.434}
{"SEQUENCE INPUT": "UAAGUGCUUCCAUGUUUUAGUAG", "VALUE REPORTED": -0.86}
{"SEQUENCE INPUT": "UAUUGCACUCGUCCCGGCCUC", "VALUE REPORTED": 1.55}
{"SEQUENCE INPUT": "UUAUCAGAAUCUCCAGGGGUAC", "VALUE REPORTED": -1.55}
{"SEQUENCE INPUT": "UUCAACGGGUAUUUAUUGAGCA", "VALUE REPORTED": 0.542}
{"SEQUENCE INPUT": "AUCGUGCAUCCCUUUAGAGUGUU", "VALUE REPORTED": -0.0114}
{"SEQUENCE INPUT": "AUAAUACAUGGUUAACCUCUUU", "VALUE REPORTED": -0.62}
{"SEQUENCE INPUT": "UCGGGGAUCAUCAUGUCACGAG", "VALUE REPORTED": 0.234}
{"SEQUENCE INPUT": "UAUGUAAUAUGGUCCACAUCUU", "VALUE REPORTED": 0.805}
